tested on: MS2 coat protein; assay: apparent KD of MS2 coat protein; designed switch direction (-1 OFF switch, 1 ON switch): 1; higher = weaker reporter binding; conditions: Eterna round: R95; input ligand: microRNA oligo, concentration not stated
apparent KD of MS2 coat protein by entry:
// return numeric value only (unit: nM, not printed)

UACAAUCUAUCUGAGGAUAUCAUGAUUUUAACAUGAGGAUCACCCAUGUGCAGGAAAACUGCAUAUGAGAAGGCAGAUAGAUUGU [salish99_ss2_r3_070] (puzzle: Same State 2): 69.7
AUAAGUUCGAUGCUCGUCUCUCCGUACAAACAUGAGGAUCACCCAUGUGACUGGGCAAUAGCCCAAUCAGUAUGGCC [Beongetiqu] (puzzle: Sensor for hsa-mir-208a): 22.8
GGUCCAGCCUGAGCUGGACAAAAGCAUGUACAUGAGGAUCACCCAUGUUCAUGUACAAGCUUUUUGCUCGUCUUAUC [salish99_208a_r3_056] (puzzle: Sensor for hsa-mir-208a): 14.6
UGUCCAGCCUGAGCUGGACAAAAGCAUGUACAUGAGGAUCACCCAUGUUCAUGUACAAGCUUUUUGCUCGUCUUAGA [salish99_208a_r3_064] (puzzle: Sensor for hsa-mir-208a): 15.8
AAACUACGUGCACAGGAUAUACGUUCCUAUACAUGAGGAUCACCCAUGUACCAACUGAAAAGGAAGUAGAAGGGUGUCCGUAAAC [Erbibearza] (puzzle: Same State 2): 80.3
UUUAGUUGCGGGCAGGAUAUGUAUUAAAAUACAUGAGGAUCACCCAUGUACGGGUAUAACACCCGACAGAAGGGCCAAUCGCGAC [Laonerce - 4] (puzzle: Same State 2): 62.6

Query: # returns recorded apparent KD of MS2 coat protein (system: MS2 coat protein) for AGUCCAGCGAAAGCUGGACAAAAGCAUGUACAUGAGGAUCACCCAUGUUCAUGUACAAGCUUUUUGCUCGUCUUGAA [JL mod - D95 - 9] (puzzle: Sensor for hsa-mir-208a)
Reply: 17.1

Query: Notebook: pull reported apparent KD of MS2 coat protein for MS2 coat protein, entry UAGUACAUGCUUUUUGUCUGUCUUAGAUAACAUGAGGAUCACCCAUGUAAGGUGAAAGUUAUAUAGUUUAUGAAUAU [JR_SHM208A_Sub058] (puzzle: Sensor for hsa-mir-208a)
Reply: 346

Query: Lookup: apparent KD of MS2 coat protein / MS2 coat protein / AUGGUGCAGGUACAGGAUAUGUUGCUCGUAACAUGAGGAUCACCCAUGUACCUAUGAGAUUAAAUGCAGAAGGGUGCACACCACA [Mat - Same State 2 - Mod of UCT - D88] (puzzle: Same State 2)
Reply: 325

Query: Missing value: apparent KD of MS2 coat protein, MS2 coat protein, entry GGAGCCGGCACUGAGGAUAUUCAUAUUAAAACAUGAGGAUCACCCAUGUAGGCCAGAAGGCCUUGGGAGAAGGCGGGUCGGCCCG [Bibimoar - 3] (puzzle: Same State 2) . Fill in?
Reply: 360

###

In this section, each of the sequences is paired with its reported apparent KD of MS2 coat protein.
test system: MS2 coat protein; assay: apparent KD of MS2 coat protein; designed switch direction (-1 OFF switch, 1 ON switch): -1; higher = weaker reporter binding; conditions: input ligand: none
Record the value in nM, omitting the unit from your answer.

Some sequences with known apparent KD of MS2 coat protein results, for comparison:
GAUGGACAUGAGGAUCACCCAUGUAAGGAUAUUGAUUGUGGCUAUAAAUAGUUACGGUCAAGAAGGUACUCGUC [-21.6, -18.6 kcal, A 31%] (Eterna round: R97, puzzle: Exclusion 1): 161
ACAAGCUUUGUUGGGUGGUACAUGAGGAUCACCCAUGUUGCGCUCGUCUUGUGGGCCCGGGCCCGCGGCCCGGGCCC [-41.5, -69.6, A 12%] (Eterna round: R97, puzzle: Sensor, turn-off variant 1): 663
CCAGAUGCAGGAUAUGUAAAAUUUGACAUGAGGAUCACCCAUGUAGAUCCUGAAUUUCCUGCAGAAGGGCAUCUGG [Mat - Exclusion 5 - Eli Mod - D20] (Eterna round: R97, puzzle: Exclusion 5): 105

Okay, next one:
Query: Can you look up the measured apparent KD of MS2 coat protein of GAAAACGCUGAGGAUAUUUCUGAUCAAAGCAGCAAAGAAGGCAGCACAUGAGGAUCACCCAUGUGGUCUUCAAG [Mat - Exclusion 6 - JL Mod - D12] (Eterna round: R97, puzzle: Exclusion 6) for me?
Reply: 44.7

###

system: K4 kissing-loop RNA reporter; assay: apparent KD of K4 kissing-loop reporter; higher = weaker reporter binding; settings: Eterna round: R107; input ligand: theophylline 20 uM;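 further: bound reporter read as fluorescence of individual clusters on recovered sequencing chips by microscopy, with normalized cluster intensities fitted with a binding model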
apparent KD of K4 kissing-loop reporter values for the sequences below.
# output: bare number, implied unit nM

Completed entries (count: 5):
AGCAUUUUCAGAAGGAGCGUGAAUUAUUCAUAAUUAUAUUAUACGAGUGAUGUUCGUAUUUCACAGGUAGGUCGCUGAUAUAGCA [JR_SSArginiB_Sub002]: 81.6
GGUAGCAUGGCGGCCGCCACUUGCACUCGUCUUGCAUAUUGGCCUAUGAUAGUAGUGAUGUUACUAAGGACCGGGCCAUGCUACC: 178
AUAAUUAUAUAGAAAUAUAUAAUUAUAUAACGAGGACCGGUACGGCCGCCACUCGUGCCGGGCAUAAAAUGAGUGAUGUUCAUGU [KL-XTryp-A7 #analogue]: 193
GCAGUGAUGUUGCGGAUGUACAGUGGAGUGCGAGGACCGGUACGGCCGCCACUCGUACAGAACAAGCUAAUAUAUCGAUAGGUGA [X]: 282
UUUGGAUUGCGCUAAGAGUGCAAGCGCCAACGAGGACCGGUACGGCCGCCACUCGCGGAGGAGUCCAGUGAUGUUGGACGGCCCG [Orbile]: 178

Query: Consider the sequence AAUAAUAAUAAAUAAAGAUUGAUGAGCAAACGAGGACCGGUACGGCCGCCACUCGAGUGAUGUUCGAGAAGCUCAUCAAUCAUAA [AK4.8 Exc Tryptophan A] and give its measured apparent KD of K4 kissing-loop reporter.
Reply: 112

Query: Please give the measured apparent KD of K4 kissing-loop reporter for this sequence: UGGUUAAGCAGUGAUGUUGCAAGUGAUGAUACCAGUUAAGAAGAGAACCCUUGGCAGCAUAAAGUGCGCUCUGAUGAGUGUGCUU [whbob_SS_Theo_A_w55]
Reply: 176

Query: Which apparent KD of K4 kissing-loop reporter value belongs to AGACUACUGAUAGGAUAUAACAUCCUAGUCGUAUACCGAAAGGUAUACGAAACCCUUCUAGUGAUGUUAGAAGGGUCGGUAGUCA [Omei KL FMN B Exc B v9] ?
Reply: 59.6

Query: Consider the sequence GCGCAUGUUAAAGGAUAUAGCAGGUGAUACAAGAAAGUGAGUGAUGUUUAUGUAGAUGAUGAUAUGUUAGAAGGUUAACAAGCGC [abcdefghijklmnop] and give its measured apparent KD of K4 kissing-loop reporter.
Reply: 788

Query: Data request, read-out apparent KD of K4 kissing-loop reporter, for UUACAGCCCAGUGAUGUUGGGUAGCGGCGGCGAGGACCGGUACGGCCGCCACUCGGCGCACAGGCGGAGUGAUGUUUUGCUUAAA [Same State Tryptophan A GF 11]
Reply: 927

Query: What value of apparent KD of K4 kissing-loop reporter has been reported for the following sequence? AGUGUACAGUCGGCCGCCACUCACUCCUCCUGCGUUAACGAGUGAUGUUUGUUUUUUAGUGGUACGAGGACCGGGACUUCUCUGA [theeternabot_sameState_KL_Trp_B_35]
Reply: 245

Query: # apparent KD of K4 kissing-loop reporter lookup, item UUACUGCCCAGUGAUGUUGGGUAUCGGCGGCGAGGACCGGUACGGCCGCCACUCGGCGCACAGGCGGAGUGAUGUUUCGCUUAAA [Same State Tryptophan A GF 12]
Reply: 631

Query: Recorded apparent KD of K4 kissing-loop reporter of GGUGCUGUCUGUGCCGCCCUCCUCGUCCCUCGAGGACCGGUACGGCCGCCACUCGAGUGAUGUUCGGGUAGCCCUCCCUGCCAGC [BDazzled - #21 Exc. Tryptophan A] , please.
Reply: 438

Query: Request the reported apparent KD of K4 kissing-loop reporter associated with UUUUUAUGCAGUGAUGUUGCUAAUAUAACAGAGGAUAUGCAUUAAAGCAGAAGGCUGAAAUACUAUACUUUAAUAAAUUAAAUUU [JR_SSFMNA_Sub013]
Reply: 144

Query: Please look up its apparent KD of K4 kissing-loop reporter: AUAAACUUGCAGUGAUGUUGCAAGUAAGACUAGGAUAUCAGGAAACUGAGAAGGAGUCAUCUCCUUCACUUGCAACUAGGAGGAG [[K1]-[K2]-[F1]-[F2]-[F]'-[K]'-[F]''_Design6]
Reply: 144

Query: Given the entry CGUUUAUAGCAGGAUACCAGUACCCAUUAUGUACGUUUAUAGUAGAGUGAUGUUCUAAAGUACCCUUGGCAGCUUCCCGUGACCC [ExTheophylB.Z] , report its measured apparent KD of K4 kissing-loop reporter.
Reply: 179

Query: Tell me the measured apparent KD of K4 kissing-loop reporter of AAUAAUCUAGGUGAUACCAGCUCAACAUGAGUGAUGUUCAUGAAAUAAUGUAGAGUUGAGAGCCCUUGGCAGCACCUAGAUAAUA [KL-SSTheoB5] , please.
Reply: 178

Query: # get_value(readout='apparent KD of K4 kissing-loop reporter', item= UGAUACCAGACUGAUACCAGCCAGUGAUGUUGGCAAUAUCCAAGGUGAGUCAAAGACUCGGGCCCUUGGCAGCAGUCUGGUAUCU [TheoBX 7 #SwitchBubble #StaticStem] )
Reply: 152

Query: What does the record list as apparent KD of K4 kissing-loop reporter for CGUUUAUAGCAGGAUACCAGUACGGAUAAGGUACGUUAAUAGUAGAGUGAUGUUCUAAAGUACCCUUGGCAGCUUAGAGUGAGUG [#20 K4 Theophylline B Exclusion] ?
Reply: 126

Query: Dear colleague, I am looking for the recorded apparent KD of K4 kissing-loop reporter of the following sequence: AAAGGAUCAGAGAGUGAUGUUCUCUAAUAACGAGGACCGGUACGGCCGCCACUCGAAGAUCCAAAAGUCCUACGAAAAGUAGGAC [Omei inspired 7]
Reply: 251

Query: // returns reported apparent KD of K4 kissing-loop reporter for input GGGUAUUACGGAGGAUAUGCACUGAGGAGGAGAAUAUAGUGAUGUUAUAUAAGAGGAAGGAGAAGAGUAGAAGGCCGUGGUGUUU [SSFMNB.J]
Reply: 195

Query: Please report the recorded apparent KD of K4 kissing-loop reporter for UUGGCUGGACGGGAUACCAGCCAAAUCGUGUGCUUGGGAUGUCUAAGAGCCAGUGAUGUUGGCCCUUGGCAGCCCUCCCAGCUUG [Inontixe] .
Reply: 134

Query: // returns reported apparent KD of K4 kissing-loop reporter for input CUGAGCCUGACGAAAGUCAGGCUCUGCGAGCGAGGACCGGUACGGCCGCCACUCGGUGCAGUGAUGUUGCAUGGCCGCAAGGCCG [#2 Exclusion - Tryptophan A Attempt #18 (HarryS)]
Reply: 256
